# Test system: SK-OV-3
# protocolNotes: NCI tumour cell line growth inhibition, 48 h
Active and inactive are the calls of the source. Rule as the data show it: active = GI50 up to about 1.1 µM and inactive = higher.
endpointName: GI50

INSERT INTO assay_data (compound, experimentalresult) VALUES
  ('Nc1nc(Cl)cc(NCC2(CO)CC(OCc3ccccc3)C2)n1 (stereo not given)', '> 100 µM (inactive)'),
  ('CCOC(=O)c1c(SC(=O)/C=C/c2ccccc2)n(-c2ccccc2)c(=S)n(-c2ccccc2)c1=O', '> 100 µM (inactive)'),
  ('NC(=O)NC1C(C(N)=O)N(Cc2ccccc2)C(=O)N1Cc1ccccc1 (stereo not given)', '> 100 µM (inactive)'),
  ('CC(=O)NC(c1nc2cc(C)c(C)cc2[nH]1)c1nc2cc(C)c(C)cc2[nH]1', '17.7 µM (inactive)'),
  ('CNc1nc2c(C)ccc3nc(N(C)C)[nH]c3c-2n1', '21.1 µM (inactive)'),
  ('CCN1CCN(c2ccc(Nc3ccnc4ccc5nn(C)nc5c34)cc2)CC1', '13.8 µM (inactive)'),
  ('O=C(Nc1cc2c(=O)[nH]c3ccccc3c2oc1=O)c1cnccn1', '> 100 µM (inactive)'),
  ('COC1OC(OC)C2C(c3c(C)cc(C)cc3C)=NOC12 (stereo not given)', '> 100 µM (inactive)'),
  ('Nc1ccc2nc(N)n[n+]([O-])c2c1', '> 100 µM (inactive)'),
  ('CCCCCCCCCCCCCCCCCCNc1ccn(C2OC(COP(=O)(O)OCC3CCC(n4cnc5c(=O)[nH]cnc54)O3)C(O)C2O)c(=O)n1 (stereo not given)', '> 100 µM (inactive)');

====

# Test system: NCI-H226
# protocolNotes: NCI tumour cell line growth inhibition, 48 h
Activity calls are given as the source filed them. Cut-off read from the data, not from the text of the source: active = GI50 up to about 1.1 µM and inactive = higher.
endpointName: GI50

INSERT INTO results (molecule, experimentalresult) VALUES
  ('CC1(C)COC(c2cccnc2/C=N/O)=N1', '> 100 µM (inactive)'),
  ('C/C(=N\Nc1ccc([N+](=O)[O-])cc1[N+](=O)[O-])c1ccc2ccccc2n1', '88.1 µM (inactive)'),
  ('O=C1NCCN1/N=C/c1c(Cl)n(-c2ccccc2)c2ccccc12', '20.4 µM (inactive)'),
  ('CNc1ncnc2c1cnn2COCC(O)CO (configuration not stated)', '> 100 µM (inactive)'),
  ('O=C1C(Cl)=C(N(C(=O)c2ccccc2)C(=O)c2ccccc2)C(=O)c2ccccc21', '> 100 µM (inactive)'),
  ('O=C1c2cc3ccccc3cc2C2(c3ccc(Cl)cc3)NCCN12 (configuration not stated)', '34.5 µM (inactive)'),
  ('COc1ccc(-c2nc3cc(F)ccc3s2)cc1O', '23.8 µM (inactive)'),
  ('Nc1nc(Cl)cc(NCC2(CO)CC(OCc3ccccc3)C2)n1 (configuration not stated)', '25.6 µM (inactive)'),
  ('CCOC(=O)NN(C(=O)OCC)C(C(=O)C1=CCCCC1)N(NC(=O)OCC)C(=O)OCC', '> 100 µM (inactive)'),
  ('COc1ccc2[nH]c(CCNC(=O)c3cc([N+](=O)[O-])cc([N+](=O)[O-])c3)cc2c1', '71.1 µM (inactive)'),
  ('COc1ccc(/C=N\N2C(=O)Cc3ccccc32)cc1', '> 100 µM (inactive)'),
  ('COC1(OC)N=C(N)C2(C#N)C3(C(=O)N(C(C)C)N=C3C)C12C#N (configuration not stated)', '> 100 µM (inactive)'),
  ('C=CCN(N=O)C(=O)N(CCCCC(NC(C)=O)C(=O)NCc1ccccc1)Cc1ccccc1 (configuration not stated)', '25.4 µM (inactive)'),
  ('CCOC(=O)N1CCN(c2ccc3ccc(N)nc3n2)CC1', '> 100 µM (inactive)'),
  ('COc1ccc(/N=N/c2c(O)ccc3ccccc23)cc1', '17.7 µM (inactive)'),
  ('O=C1c2c(F)c(F)c(F)c(F)c2SC2=NCCN12', '16.2 µM (inactive)'),
  ('O=C1c2ccccc2C(=O)c2c1ccc1c2OCO1', '58.7 µM (inactive)'),
  ('COC(=O)CNC(=O)c1cc(C)cc2c1Oc1c(cc(C)cc1C(=O)NCC(=O)OC)S2', '> 100 µM (inactive)'),
  ('C=CCN1C(=O)C/C(=C2/CCC(=O)N2CC=C)C1=O', '> 100 µM (inactive)'),
  ('O=C1CC[N+]2=Cc3ccccc3O[B-]2(c2ccccc2)O1 (configuration not stated)', '> 100 µM (inactive)'),
  ('Cc1ccc2nc(CC(=O)c3ccc4ccccc4c3)c(O)nc2c1', '> 100 µM (inactive)'),
  ('CCOC(=O)CCC(NC(=O)c1ccc(NC(OC)c2nc3cc(C(F)(F)F)ccc3nc2-c2ccccc2)cc1)C(=O)OCC (configuration not stated)', '18.6 µM (inactive)');

====

# Tested on: RPMI-8226
# protocolNotes: NCI tumour cell line growth inhibition, 48 h
Calls of active or inactive are those of the source. No stated cut-off is given here; in the data, active = GI50 up to about 1.1 µM and inactive = higher.
Outcome codes: active, inactive

INSERT INTO measurements (compound, answerlabel) VALUES
  ('N#CC(NNC(=O)Cc1ccccc1)c1ccc([N+](=O)[O-])cc1 (stereo unspecified)', 'inactive'),
  ('Nc1nc(Cl)cc(NCC2(CO)CC(OCc3ccccc3)C2)n1 (stereo unspecified)', 'inactive'),
  ('O=C1CC[C@H]2CNC(=O)C[C@H]2C1', 'inactive'),
  ('Cc1cccc2c(=O)cc(-c3ccccc3)[nH]c12', 'inactive'),
  ('Cc1[nH]n(C2=NCCN2)c(=O)c1Cc1ccccc1', 'inactive'),
  ('c1ccc(SC2(Sc3ccccc3)CCCC2)cc1', 'inactive'),
  ('Cc1nn(C(=O)c2ccc(Cl)cc2)c2c1C(c1ccco1)SC(=N)N2 (stereo unspecified)', 'inactive'),
  ('O=c1n(-c2ccc(Cl)c(Cl)c2)c(=O)n(-c2ccc(Cl)c(Cl)c2)c(=O)n1-c1ccc(Cl)c(Cl)c1', 'active'),
  ('CC(C)Cc1ccc(C(C)/C=C2\CCC(CN3CCCCC3)C2=O)cc1 (stereo unspecified)', 'active'),
  ('COc1cc2ccc3c4ccccc4cnc3c2cc1OC', 'inactive'),
  ('CN(C)P(=O)(Oc1ccc(CC(NC(=O)OCc2ccccc2)C(=O)OCc2ccccc2)cc1)N(C)C (stereo unspecified)', 'inactive');

====

Attribute: GI50
# Test system: UACC-62
# protocolNotes: NCI tumour cell line growth inhibition, 48 h
Activity calls are given as the source filed them. Cut-off read from the data, not from the text of the source: active = GI50 up to about 1.1 µM and inactive = higher.
endpointName: GI50

INSERT INTO results (compound, targetundertest, endpointname, experimentalresult) VALUES
  ('CCOC(=O)c1cn(CC)c(=O)n2c1nc1ccccc12', 'UACC-62', 'GI50', '57.5 µM (inactive)'),
  ('Nc1nc(CCl)nc(N2CCOCC2)n1', 'UACC-62', 'GI50', '15.8 µM (inactive)'),
  ('O=c1cccccc1NCCCCCCCCCNc1cccccc1=O', 'UACC-62', 'GI50', '12.5 µM (inactive)'),
  ('CCOC(=O)c1sc(=S)n(-c2ccc(Cl)cc2)c1-n1cc(-c2ccccc2)c(C#N)c1N', 'UACC-62', 'GI50', '24.8 µM (inactive)'),
  ('O=C1C2=C(SCCS2)C(=O)c2ccccc21', 'UACC-62', 'GI50', '1.65 µM (inactive)'),
  ('O=c1[nH]c(=O)n(C2CC(O)C(CO)O2)c2nc3cc4ccccc4cc3nc12 (stereo unspecified)', 'UACC-62', 'GI50', '> 100 µM (inactive)'),
  ('Cc1cccc(C(=O)O)c1C(=O)c1cccc2ccccc12', 'UACC-62', 'GI50', '> 100 µM (inactive)'),
  ('Cc1cc2c(=O)cc(-c3ccncc3)oc2c(C(N)=O)c1C', 'UACC-62', 'GI50', '99.8 µM (inactive)'),
  ('N#CC(C(=O)/C(=N\Nc1nc(S)nn1N)C(C#N)c1ccc(Cl)cc1)c1ccc(Cl)cc1 (stereo unspecified)', 'UACC-62', 'GI50', '> 100 µM (inactive)'),
  ('OC1(c2cc3ccccc3s2)CCCCC1', 'UACC-62', 'GI50', '69.7 µM (inactive)'),
  ('C=C/C(C)=C\CC1[C@](C)(O)CC[C@H]2C(C)(C)C(=O)CC[C@]12C (stereo partly specified)', 'UACC-62', 'GI50', '> 100 µM (inactive)');

====

# System: MDA-MB-231
# protocolNotes: NCI tumour cell line growth inhibition, 48 h
Active and inactive are the calls of the source. Rule as the data show it: active = GI50 up to about 1.1 µM and inactive = higher.
endpointName: GI50

INSERT INTO measurements (molecule, targetundertest, experimentalresult) VALUES
  ('c1ccc2c(c1)Cn1c-2nc2ccccc21', 'MDA-MB-231', '> 100 µM (inactive)'),
  ('NC(=S)NS(=O)(=O)c1ccc(Cl)cc1', 'MDA-MB-231', '> 100 µM (inactive)'),
  ('CC(C)=NOC(=O)CNC(=O)C(Cc1ccccc1)NC(=O)C(C)NC(=O)OC(C)(C)C (stereo unspecified)', 'MDA-MB-231', '> 100 µM (inactive)'),
  ('[N-]=[N+]=Nc1c(-c2ccccc2)c(Cl)nc2ccccc12', 'MDA-MB-231', '31.8 µM (inactive)'),
  ('CCNc1nc(N)c(C(=O)c2cccs2)s1', 'MDA-MB-231', '50.4 µM (inactive)'),
  ('Cc1cc(CNC(=O)OCc2ccccc2)c(C)c2c1Oc1ccccc1O2', 'MDA-MB-231', '6.67 µM (inactive)');
